- TARGET SYSTEM: Tyrosine-protein phosphatase non-receptor type 22 (Homo sapiens) (UniProt Q9Y2R2)
- Sequence (Q9Y2R2 whole entry, looked up): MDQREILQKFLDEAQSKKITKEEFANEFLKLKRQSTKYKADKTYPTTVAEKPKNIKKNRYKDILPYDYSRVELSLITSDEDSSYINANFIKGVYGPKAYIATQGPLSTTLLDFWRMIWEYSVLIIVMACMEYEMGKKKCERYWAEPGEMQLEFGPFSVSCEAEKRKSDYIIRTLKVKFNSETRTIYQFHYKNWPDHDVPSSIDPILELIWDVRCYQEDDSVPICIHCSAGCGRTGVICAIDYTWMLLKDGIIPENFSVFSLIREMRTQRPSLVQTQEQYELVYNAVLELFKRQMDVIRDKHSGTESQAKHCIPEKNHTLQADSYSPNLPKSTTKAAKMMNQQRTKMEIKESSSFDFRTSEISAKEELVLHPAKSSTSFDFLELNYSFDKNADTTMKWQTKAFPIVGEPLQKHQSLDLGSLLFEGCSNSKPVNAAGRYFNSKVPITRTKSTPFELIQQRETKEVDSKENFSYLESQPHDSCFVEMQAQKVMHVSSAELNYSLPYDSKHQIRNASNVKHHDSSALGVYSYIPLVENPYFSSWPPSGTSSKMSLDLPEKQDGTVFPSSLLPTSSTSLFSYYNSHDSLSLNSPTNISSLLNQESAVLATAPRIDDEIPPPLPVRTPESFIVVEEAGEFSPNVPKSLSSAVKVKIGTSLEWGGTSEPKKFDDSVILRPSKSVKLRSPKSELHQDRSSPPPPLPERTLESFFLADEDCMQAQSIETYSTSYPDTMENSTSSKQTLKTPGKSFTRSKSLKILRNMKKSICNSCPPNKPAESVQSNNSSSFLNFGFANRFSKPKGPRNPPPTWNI
- MEASUREMENT DESCRIPTION: PTPN22 lymphoid phosphatase activity blockers – biochemical, fluorescence intensity, uHTS (AID 1779);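 note: plate controls were vehicle with enzyme for no effect and no enzyme for full effect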
- CONDITION DETAILS: recombinant LYP phosphatase, at 11.5 µM, stronger effect = higher value
Out of some 290,000 compounds screened, about 160 (0.055%) were called active. What follows is part of a selection rich in actives, with near analogues and random picks from the rest.
List of inhibition values.
Provide only the numeric value, understood in %.

| COMPOUND | inhibition (%) |
| --- | --- |
| Cc1ccc2c(C)c(C(=O)NCC(C)(C)N3CCOCC3)oc2c1C | -8.2 |
| CN(C)CCCN1C(=O)CSC1c1ccccc1 (centres undefined) | -5.4 |
| C=CCN(CC=C)C(=S)NC(=O)/C=C/c1ccc(OC)cc1 | 8.3 |
| O=C(CS(=O)CC(=O)Nc1ccc(Cl)cc1)NCC1OCCc2ccccc21 (centres undefined) | 52.3 |
| COc1cccc(OC)c1C(=O)Nc1cccc(-c2ccc3nncn3n2)c1 | -6.9 |

## Input Dear colleague, I am looking for the recorded inhibition of the following compound: O=C(NC1CCN(Cc2ccccc2)CC1)C1CCCN(c2nnc(-n3cccc3)s2)C1 (centres undefined)
## Output -1.4

## Input Next: Cc1ccc(S(=O)(=O)c2nc(-c3ccccc3)oc2NCCCN2CCOCC2)cc1
## Output 3.6

## Input Then Cc1ccc2sc(NNC(=O)c3cc(=O)c4ccccc4o3)nc2c1C ?
## Output 1.8

## Input Would you kindly repeat that for CSc1ccccc1NC(=O)CSc1nnc(Cc2ccccc2)o1 ?
## Output -12.7

## Input Same for CCOC(=O)NC(=O)C(=CNc1ccc(C)cc1)C(=O)NC(=O)OCC
## Output 57.4

----------
- TARGET SYSTEM: Tyrosine-protein phosphatase non-receptor type 22 (Homo sapiens) (UniProt Q9Y2R2)
- MEASUREMENT DESCRIPTION: PTPN22 lymphoid phosphatase activity blockers – biochemical, fluorescence intensity, uHTS (AID 1779);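 note: plate controls were vehicle with enzyme for no effect and no enzyme for full effect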
- CONDITION DETAILS: recombinant LYP phosphatase, at 11.5 µM, stronger effect = higher value
Among all 290,000 compounds or so, about 160 (0.055%) were called active. The sample as a whole holds a higher share of actives than the screen did.
Here, each record is paired with measured inhibition data.
Kindly provide the numeric value in % only, without the unit symbol.

# count of solved cases: 4
| COMPOUND | U | inhibition |
| --- | --- | --- |
| Cc1cccc(OCC(=O)Nc2nnn(C)n2)c1C | % | -6.4 |
| Brc1cccc(C2Nc3cccc4cccc(c34)N2)c1 | % | -6.2 |
| O=C(O)CC/C(=N/NC(=O)c1cn(-c2ccccc2)nc1-c1ccccc1)C(=O)O | % | -3.5 |
| c1coc(C2Nc3cccc4cccc(c34)N2)c1 | % | 18.4 |

## Input Bench note: what inhibition did O=C(NCc1ccncc1)c1cncc(Br)c1 show?
## Output -9.5

## Input What do you get for CC(NC(=O)CN1CCN(c2ccccc2F)CC1)c1ccccc1 (stereo unspecified) ?
## Output -13

----------
- TARGET SYSTEM: Tyrosine-protein phosphatase non-receptor type 22 (Homo sapiens) (UniProt Q9Y2R2)
- MEASUREMENT DESCRIPTION: PTPN22 lymphoid phosphatase activity blockers – biochemical, fluorescence intensity, uHTS (AID 1779);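 note: plate controls were vehicle with enzyme for no effect and no enzyme for full effect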
- CONDITION DETAILS: recombinant LYP phosphatase, at 11.5 µM
Screen size: about 290,000 compounds; about 160 (0.055%) were called active. No stated cut-off is given here; in the data, active means inhibition above about 50%; inactive means the rest. Only a selection was taken, and actives are over-represented in it overall.
Parameter call: string, one of active, inactive

Below, 4 compounds whose answers are already recorded.
| COMPOUND | TARGET SYSTEM | CLASS NAME |
| --- | --- | --- |
| COc1ccc2[nH]c(C)c(CCNC(=S)Nc3cc(C)cc(C)c3)c2c1 | Tyrosine-protein phosphatase non-receptor type 22 (Homo sapiens) (UniProt Q9Y2R2) | inactive |
| CCOc1ccc(N(CC(=O)NC(C)C)C(=O)CCC(=O)Nc2ccccn2)cc1 | Tyrosine-protein phosphatase non-receptor type 22 (Homo sapiens) (UniProt Q9Y2R2) | inactive |
| CSCC[C@H](NC(=O)Nc1cccc(Br)c1)C(=O)O | Tyrosine-protein phosphatase non-receptor type 22 (Homo sapiens) (UniProt Q9Y2R2) | inactive |
| Cc1c(N=Nc2ccc(O)cc2)c(=O)n(-c2ccccc2)n1C | Tyrosine-protein phosphatase non-receptor type 22 (Homo sapiens) (UniProt Q9Y2R2) | inactive |

## Input Recorded test call requested for CCOC(=O)c1cnc2c(Cl)c(Cl)ccc2c1NCCN1CCOCC1
## Output active

## Input Would you kindly repeat that for COc1ccc2[nH]c(C)c(CCNC(=S)Nc3cc(C)ccc3C)c2c1 ?
## Output active

## Input Field entry: C=CCNc1nc(C(F)(F)F)nc2c1nnn2Cc1ccccc1Cl
## Output inactive
